Assayed Target: DDB1AB-CRBN (Homo sapiens)
Sequence (Q96SW2 whole entry): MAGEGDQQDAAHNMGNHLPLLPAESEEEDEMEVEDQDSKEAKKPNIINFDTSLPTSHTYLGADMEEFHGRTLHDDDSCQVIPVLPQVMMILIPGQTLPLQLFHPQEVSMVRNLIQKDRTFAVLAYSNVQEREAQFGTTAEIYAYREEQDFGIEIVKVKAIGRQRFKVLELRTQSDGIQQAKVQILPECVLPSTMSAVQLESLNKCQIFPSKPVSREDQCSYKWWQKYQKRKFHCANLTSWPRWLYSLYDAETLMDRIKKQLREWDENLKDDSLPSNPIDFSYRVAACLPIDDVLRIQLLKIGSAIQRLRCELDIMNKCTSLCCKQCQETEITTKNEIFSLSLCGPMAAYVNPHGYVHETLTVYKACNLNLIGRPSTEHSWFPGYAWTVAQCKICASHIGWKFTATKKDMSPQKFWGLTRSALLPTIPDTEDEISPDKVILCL
Procedure Text: Lenalidomide displacement assay (Atto565-Lenalidomide fluorescence polarization)
Assay type: binding
Condition Summary: refers to Tables 1 and 2, FIG. 1A/1B; read-out: IC50
pIC50: −log10 of the molar value.
Readout Kind: pIC50

a. Nc1ccc(C(=O)NC2CCC(=O)NC2=O)c2ncccc12 (centres unmarked) [Compound 23]
b. Nc1ccnc2c(C(=O)NC3CCC(=O)NC3=O)cccc12 (centres unmarked) [Compound 24]
Data request: Between a and b , whose recorded pIC50 is greater? Kindly give the label for the entry you pick.
Data returned: a
(a: 5.54, b: 5.11)

----------
# DDB1AB-CRBN (Homo sapiens): pKi values follow
pKi: −log10 of the molar value.
Readout Kind: pKi

// worked examples, pKi included
>>> print(df.to_string())
                                   compound  result_number
0  O=C1CCC(NC(=O)c2ccnc(NCc3ccccc3)n2)C(=O)N1 (centres unmarked)           4.49
1  Cn1cccc(C(=O)NC2CCC(=O)NC2=O)c1=O (centres unmarked)           4.18
2  O=C1CCC(NC(=O)c2cccn(Cc3ccccc3)c2=O)C(=O)N1 (centres unmarked)           4.82

a. O=C1CCC(NC(=O)c2cccc3nc[nH]c23)C(=O)N1 (centres unmarked)
b. O=C1CCC(NC(=O)c2cccn(-c3ccccc3)c2=O)C(=O)N1 (centres unmarked)
Data request: Which entry shows the lesser value of pKi here, a or b ? Kindly give the label for the entry you pick.
Data returned: b
(b: 4.69, a: 4.97)
